# Test system: Streptococcus pneumoniae P1
# Assay: MIC, standard broth micro-dilution assay, SPN P1
# Type: cell-based
Item-by-item account of Minimal Inhibitory Concentration (MIC) SPN P1
Reply briefly: the number, and no unit.

{"Molecule": "CC(C)C[C@H](C(=O)N[C@H]1C(=O)N[C@@H](CC(N)=O)C(=O)N[C@H]2C(=O)N[C@H]3C(=O)N[C@H](C(=O)N[C@H](C(=O)O)c4cc(O)cc(O)c4-c4cc3ccc4O)[C@H](O[C@H]3C[C@](C)(N)[C@@H](O)[C@H](C)O3)c3ccc(c(Cl)c3)Oc3cc2cc(c3O[C@@H]2O[C@H](CO)[C@@H](O)[C@H](O)[C@H]2O[C@H]2C[C@](C)(NCc3ccc(Cl)cc3)[C@@H](O)[C@H](C)O2)Oc2ccc(cc2Cl)[C@H]1O)N(C)C(=S)Nc1ccccc1", "Target Entity": "Streptococcus pneumoniae P1", "Measurement": 0.25}

Given CC(C)CC(C(=O)NC1C(=O)NC(CC(N)=O)C(=O)NC2C(=O)NC3C(=O)NC(C(=O)NC(C(=O)O)c4cc(O)cc(O)c4-c4cc3ccc4O)C(OC3CC(C)(N)C(O)C(C)O3)c3ccc(c(Cl)c3)Oc3cc2cc(c3OC2OC(CO)C(O)C(O)C2OC2CC(C)(NCc3ccc(Oc4ccccc4)cc3)C(O)C(C)O2)Oc2ccc(cc2Cl)C1O)N(C)C(=S)Nc1ccc(OCc2ccccc2)cc1 (centres unmarked) , state its recorded Minimal Inhibitory Concentration (MIC) SPN P1.
4

// query: "CC(C)C[C@H](C(=O)N[C@H]1C(=O)N[C@@H](CC(N)=O)C(=O)N[C@H]2C(=O)N[C@H]3C(=O)N[C@H](C(=O)N[C@H](C(=O)O)c4cc(O)cc(O)c4-c4cc3ccc4O)[C@H](O[C@H]3C[C@](C)(N)[C@@H](O)[C@H](C)O3)c3ccc(c(Cl)c3)Oc3cc2cc(c3O[C@@H]2O[C@H](CO)[C@@H](O)[C@H](O)[C@H]2O[C@H]2C[C@](C)(NCc3ccc(-c4ccccc4)cc3)[C@@H](O)[C@H](C)O2)Oc2ccc(cc2Cl)[C@H]1O)N(C)C(=S)Nc1ccccc1"
0.125

Entry to check: CC(C)CC(C(=O)NC1C(=O)NC(CC(N)=O)C(=O)NC2C(=O)NC3C(=O)NC(C(=O)NC(C(=O)O)c4cc(O)cc(O)c4-c4cc3ccc4O)C(OC3CC(C)(N)C(O)C(C)O3)c3ccc(c(Cl)c3)Oc3cc2cc(c3OC2OC(CO)C(O)C(O)C2OC2CC(C)(N)C(O)C(C)O2)Oc2ccc(cc2Cl)C1O)N(C)C(=S)Nc1ccc([N+](=O)[O-])cc1 (centres unmarked)
0.25

Another molecule to look at: CCCCc1ccc(NC(=S)N(C)C(CC(C)C)C(=O)NC2C(=O)NC(CC(N)=O)C(=O)NC3C(=O)NC4C(=O)NC(C(=O)NC(C(=O)O)c5cc(O)cc(O)c5-c5cc4ccc5O)C(OC4CC(C)(N)C(O)C(C)O4)c4ccc(c(Cl)c4)Oc4cc3cc(c4OC3OC(CO)C(O)C(O)C3OC3CC(C)(NCc4ccc(Oc5ccccc5)cc4)C(O)C(C)O3)Oc3ccc(cc3Cl)C2O)cc1 (centres unmarked)
2

Please answer likewise for CC(C)CC(C(=O)NC1C(=O)NC(CC(N)=O)C(=O)NC2C(=O)NC3C(=O)NC(C(=O)NC(C(=O)O)c4cc(O)cc(O)c4-c4cc3ccc4O)C(OC3CC(C)(N)C(O)C(C)O3)c3ccc(c(Cl)c3)Oc3cc2cc(c3OC2OC(CO)C(O)C(O)C2OC2CC(C)(N)C(O)C(C)O2)Oc2ccc(cc2Cl)C1O)N(C)C(=S)Nc1ccc(OCc2ccccc2)cc1 (centres unmarked)
0.125

What do you get for CC(C)CC(C(=O)NC1C(=O)NC(CC(N)=O)C(=O)NC2C(=O)NC3C(=O)NC(C(=O)NC(C(=O)O)c4cc(O)cc(O)c4-c4cc3ccc4O)C(OC3CC(C)(N)C(O)C(C)O3)c3ccc(c(Cl)c3)Oc3cc2cc(c3OC2OC(CO)C(O)C(O)C2OC2CC(C)(N)C(O)C(C)O2)Oc2ccc(cc2Cl)C1O)N(C)C(=S)Nc1ccccc1 (centres unmarked) [Example 1, N^LEU -(PHENYLTHIOCARBAMOYL)A82846B] ?
2

These measurements were taken from patent US5919771A.
